These entries and their values trace back to PubChem BioAssay AID2060487.

# Test system: 997537-175-T-J1-PDC complex spheroid viability
# Test Name: Anticancer human tumor 997537-175-T-J1-PDC patient-derived colon adenocarcinoma cell line growth inhibition [GQUAD]
# Experimental Setup: second compound 3.16 µM; first compound 0.0316 µM; stronger effect = lower value
Cut-off 70% on viability, T/C: below means Yes, at or above means No.

{"Compound": "CC1COCCN1c1cc(-c2ccnn2C)c2ccnc(-c3ccn[nH]3)c2n1 (stereo not given) + Cc1cnc(CNC(=O)c2c(=O)c3ccc(N4CCCN(C)CC4)nc3n3c2sc2ccccc23)cn1", "Measured Target": "997537-175-T-J1-PDC complex spheroid viability", "Assigned Label": "Yes"}
{"Compound": "CC(C)(O)C1CCC(Nc2ccc3ncc(-c4cccc(C(F)(F)F)c4)n3n2)CC1 (stereo not given) + Cc1[nH]c2ccc(F)cc2c1-c1nc2c3cccnc3c3ncccc3c2[nH]1", "Measured Target": "997537-175-T-J1-PDC complex spheroid viability", "Assigned Label": "No"}
{"Compound": "COc1cc(C2c3cc4c(cc3C(OC3OC5COC(C)OC5C(O)C3O)C3COC(=O)C23)OCO4)cc(OC)c1O (stereo not given) + Cc1cnc(CNC(=O)c2c(=O)c3ccc(N4CCCN(C)CC4)nc3n3c2sc2ccccc23)cn1", "Measured Target": "997537-175-T-J1-PDC complex spheroid viability", "Assigned Label": "Yes"}

* * *

# Test system: 997537-175-T-J1-PDC complex spheroid viability
# Test Name: Anticancer human tumor 997537-175-T-J1-PDC cell line growth inhibition [GQUAD];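 note: spheroids exposed to the agents for 7 days; 100% = DMSO vehicle control viability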
# Experimental Setup: second compound 1 µM; first compound 0.00999 µM; stronger effect = lower value
Assay Readout: viability, T/C (%)

{"Compound": "CCc1c2c(nc3ccc(O)cc13)-c1cc3c(c(=O)n1C2)COC(=O)[C@]3(O)CC + CN(C)c1ccc(Nc2c3ccc(NC(=O)CCN4CCCC4)cc3nc3cc(NC(=O)CCN4CCCC4)ccc23)cc1", "Measured Target": "997537-175-T-J1-PDC complex spheroid viability", "Meas Value": 67.6}
{"Compound": "CC[C@@]1(O)C(=O)OCc2c1cc1n(c2=O)Cc2cc3c(CN(C)C)c(O)ccc3nc2-1 + Cc1cnc(CNC(=O)c2c(=O)c3ccc(N4CCCN(C)CC4)nc3n3c2sc2ccccc23)cn1", "Measured Target": "997537-175-T-J1-PDC complex spheroid viability", "Meas Value": 101}
{"Compound": "Cn1ncnc1[C@H]1c2n[nH]c(=O)c3cc(F)cc(c23)N[C@@H]1c1ccc(F)cc1 + CN(C)c1ccc(Nc2c3ccc(NC(=O)CCN4CCCC4)cc3nc3cc(NC(=O)CCN4CCCC4)ccc23)cc1", "Measured Target": "997537-175-T-J1-PDC complex spheroid viability", "Meas Value": 79.2}

* * *

# Test system: 997537-175-T-J1-PDC complex spheroid viability
# Test Name: Anticancer human tumor 997537-175-T-J1-PDC cell line growth inhibition [GQUAD];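 note: spheroids exposed to the agents for 7 days; 100% = DMSO vehicle control viability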
# Experimental Setup: second compound 0.316 µM; first compound 3.16 µM; stronger effect = lower value
Cut-off 60% on viability, T/C: below means t, at or above means f.

{"Compound": "Nc1ccn(C2OC(CO)C(O)C2(F)F)c(=O)n1 (stereo not given) + Cc1cnc(CNC(=O)c2c(=O)c3ccc(N4CCCN(C)CC4)nc3n3c2sc2ccccc23)cn1", "Assigned Label": "f"}
{"Compound": "C=CCn1c(=O)c2cnc(Nc3ccc(N4CCN(C)CC4)cc3)nc2n1-c1cccc(C(C)(C)O)n1 + CN(C)c1ccc(Nc2c3ccc(NC(=O)CCN4CCCC4)cc3nc3cc(NC(=O)CCN4CCCC4)ccc23)cc1", "Assigned Label": "f"}
{"Compound": "O=C(c1cc(Cc2n[nH]c(=O)c3ccccc23)ccc1F)N1CCN(C(=O)C2CC2)CC1 + CN(C)c1ccc(Nc2c3ccc(NC(=O)CCN4CCCC4)cc3nc3cc(NC(=O)CCN4CCCC4)ccc23)cc1", "Assigned Label": "f"}
{"Compound": "CC1COCCN1c1cc(C2(S(C)(=N)=O)CC2)nc(-c2ccnc3[nH]ccc23)n1 (stereo not given) + CN(C)c1ccc(Nc2c3ccc(NC(=O)CCN4CCCC4)cc3nc3cc(NC(=O)CCN4CCCC4)ccc23)cc1", "Assigned Label": "f"}
{"Compound": "CC(C)(O)C1CCC(Nc2ccc3ncc(-c4cccc(C(F)(F)F)c4)n3n2)CC1 (stereo not given) + CN(C)c1ccc(Nc2c3ccc(NC(=O)CCN4CCCC4)cc3nc3cc(NC(=O)CCN4CCCC4)ccc23)cc1", "Assigned Label": "t"}
